# target-of-assay: T1, IL-2 receptor of the human CD4 positive T cell clone 3F8 (expresses CD25 and CD122) (human, UniProt P01589 22-272; P14784 27-551)
# T1 sequence 1: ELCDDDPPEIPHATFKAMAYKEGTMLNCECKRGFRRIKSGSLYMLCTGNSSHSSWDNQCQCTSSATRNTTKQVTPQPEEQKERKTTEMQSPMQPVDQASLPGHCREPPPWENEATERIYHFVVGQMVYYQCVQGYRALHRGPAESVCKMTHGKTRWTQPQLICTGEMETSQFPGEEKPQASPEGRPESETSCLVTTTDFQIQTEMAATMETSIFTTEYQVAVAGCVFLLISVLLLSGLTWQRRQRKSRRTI
# T1 sequence 2: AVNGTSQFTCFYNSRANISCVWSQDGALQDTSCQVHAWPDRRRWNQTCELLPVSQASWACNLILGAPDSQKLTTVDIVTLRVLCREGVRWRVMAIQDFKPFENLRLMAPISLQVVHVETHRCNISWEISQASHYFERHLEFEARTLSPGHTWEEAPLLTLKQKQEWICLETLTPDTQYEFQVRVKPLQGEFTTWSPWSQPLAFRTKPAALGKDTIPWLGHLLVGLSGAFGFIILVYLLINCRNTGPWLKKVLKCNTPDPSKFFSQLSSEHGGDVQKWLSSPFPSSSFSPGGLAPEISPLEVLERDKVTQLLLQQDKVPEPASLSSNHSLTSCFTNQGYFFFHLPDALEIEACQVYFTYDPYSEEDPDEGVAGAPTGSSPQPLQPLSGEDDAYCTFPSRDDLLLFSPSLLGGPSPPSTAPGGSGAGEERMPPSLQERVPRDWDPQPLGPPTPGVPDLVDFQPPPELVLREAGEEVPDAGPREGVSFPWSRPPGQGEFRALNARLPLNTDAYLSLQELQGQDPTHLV
# procedure-details: cell-based or functional assay
For each record, write down the corresponding Proliferation IC50 (pM), 3F8 cells.
Express your answer as a number followed by its unit.

[
  {
    "binder": "hIL2 mutein REM (L18R, Q22E, Q126M) (ligand) APTSSSTKKTQLQLEHLRLDLEMILNGINNYKNPKLTRMLTFKFYMPKKATELKHLQCLEEELKPLEEVLNLAQSKNFHLRPRDLISNINVIVLELKGSETTFMCEYADETATIVEFLNRWITFCMSIISTLT",
    "Proliferation IC50 (pM), 3F8 cells": "32.6 pM"
  }
]

Hi, could you look up Proliferation IC50 (pM), 3F8 cells for each item in my list?
1. hIL2 mutein REK (L18R, Q22E, Q126K) (ligand) APTSSSTKKTQLQLEHLRLDLEMILNGINNYKNPKLTRMLTFKFYMPKKATELKHLQCLEEELKPLEEVLNLAQSKNFHLRPRDLISNINVIVLELKGSETTFMCEYADETATIVEFLNRWITFCKSIISTLT
2. hIL2 mutein AEK (L18A, Q22E, Q126K) (ligand) APTSSSTKKTQLQLEHLALDLEMILNGINNYKNPKLTRMLTFKFYMPKKATELKHLQCLEEELKPLEEVLNLAQSKNFHLRPRDLISNINVIVLELKGSETTFMCEYADETATIVEFLNRWITFCKSIISTLT
3. hIL2 mutein VEK (L18V, Q22E, Q126K) (ligand) APTSSSTKKTQLQLEHLVLDLEMILNGINNYKNPKLTRMLTFKFYMPKKATELKHLQCLEEELKPLEEVLNLAQSKNFHLRPRDLISNINVIVLELKGSETTFMCEYADETATIVEFLNRWITFCKSIISTLT

["14.2 pM", "13.7 pM", "15.5 pM"]
